TARGET_OF_ASSAY: Recombinant human TYK2 catalytic domain (amino acids 871-1187) (Homo sapiens)
Construct: catalytic domain (amino acids 871-1187)
Sequence (P29597 871-1187): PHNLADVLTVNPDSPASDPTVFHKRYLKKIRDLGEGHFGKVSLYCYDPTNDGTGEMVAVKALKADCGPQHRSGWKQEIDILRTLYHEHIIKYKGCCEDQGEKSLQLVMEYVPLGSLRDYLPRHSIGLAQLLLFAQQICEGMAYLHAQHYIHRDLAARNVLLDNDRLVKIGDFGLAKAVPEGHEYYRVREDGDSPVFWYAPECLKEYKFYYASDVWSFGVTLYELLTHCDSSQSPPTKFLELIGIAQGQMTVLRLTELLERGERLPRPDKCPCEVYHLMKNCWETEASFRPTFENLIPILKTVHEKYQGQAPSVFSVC
ASSAY_EXPLANATION: TYK2 radioactive assay polyGT substrate; further: 0.1 µM ATP
Type: biochemical
Experimental: After 120 min at 30° C., reactions were stopped by adding 25 μL/well of 150 mM phosphoric acid. […] Plates were washed 6 times with 300 μL per well of a 75 mM phosphoric acid solution and the bottom of the plates is sealed. […] Kinase activity is calculated by subtracting counts per min (cpm) obtained in the presence of a positive control inhibitor (10 μM staurosporine) from cpm obtained in the presence of vehicle. […]
pIC50: −log10 of the molar value.

{"COMPOUND": "Cn1cnc2c(Nc3ccc(S(C)(=O)=O)cn3)cc(NC(C3CC3)C(F)(F)F)nc21 (stereo not drawn)", "TARGET_OF_ASSAY": "Recombinant human TYK2 catalytic domain (amino acids 871-1187) (Homo sapiens)", "pIC50": 9.00}
{"COMPOUND": "Cc1cc(C#N)ncc1Nc1cc(Nc2ccc(C(=O)N(C)C)cn2)c2ncn(C)c2n1", "TARGET_OF_ASSAY": "Recombinant human TYK2 catalytic domain (amino acids 871-1187) (Homo sapiens)", "pIC50": 8.47}
{"COMPOUND": "Cc1cc(C#N)ncc1Oc1cc(Nc2ccc(C(=O)NC3CCC(O)C3)cn2)c2ncn(C)c2n1 (racemic)", "TARGET_OF_ASSAY": "Recombinant human TYK2 catalytic domain (amino acids 871-1187) (Homo sapiens)", "pIC50": 8.25}
{"COMPOUND": "Cc1cc(C#N)ncc1Oc1cc(Nc2ccc(C(=O)N3C[C@@H](O)[C@H](N(C)C)C3)cn2)c2ncn(C)c2n1", "TARGET_OF_ASSAY": "Recombinant human TYK2 catalytic domain (amino acids 871-1187) (Homo sapiens)", "pIC50": 8.74}
{"COMPOUND": "Cc1cc(C#N)ncc1Oc1cc(Nc2ccc(S(C)(=O)=O)cn2)c2ncn(C)c2n1", "TARGET_OF_ASSAY": "Recombinant human TYK2 catalytic domain (amino acids 871-1187) (Homo sapiens)", "pIC50": 8.13}
{"COMPOUND": "CCNC(=O)c1cnc(Nc2cc(Oc3cnc(C#N)cc3C)nc3c2ncn3C)cc1C", "TARGET_OF_ASSAY": "Recombinant human TYK2 catalytic domain (amino acids 871-1187) (Homo sapiens)", "pIC50": 7.29}
{"COMPOUND": "Cc1cc(C#N)ncc1Oc1cc(Nc2ccc(C(=O)N(C)C)nn2)c2ncn(C)c2n1", "TARGET_OF_ASSAY": "Recombinant human TYK2 catalytic domain (amino acids 871-1187) (Homo sapiens)", "pIC50": 8.46}
{"COMPOUND": "C[C@H](N(C)c1cc(Nc2cc(N)ncn2)c2ncn(C)c2n1)C(C)(C)C", "TARGET_OF_ASSAY": "Recombinant human TYK2 catalytic domain (amino acids 871-1187) (Homo sapiens)", "pIC50": 8.85}
{"COMPOUND": "Cc1cc(C#N)ncc1Oc1cc(Nc2ccc(C(=O)N3CC4(COC4)C3)cn2)c2ncn(C)c2n1", "TARGET_OF_ASSAY": "Recombinant human TYK2 catalytic domain (amino acids 871-1187) (Homo sapiens)", "pIC50": 8.68}
{"COMPOUND": "Cc1cc(C#N)ncc1Oc1cc(Nc2ccc(C(=O)N3CCOCC3C#N)cn2)c2ncn(C)c2n1 (stereo not drawn)", "TARGET_OF_ASSAY": "Recombinant human TYK2 catalytic domain (amino acids 871-1187) (Homo sapiens)", "pIC50": 8.69}
{"COMPOUND": "CN(c1cc(Nc2cc(N)ncn2)c2ncn(C)c2n1)[C@@H]1CCC[C@@H](C#N)C1 (racemic)", "TARGET_OF_ASSAY": "Recombinant human TYK2 catalytic domain (amino acids 871-1187) (Homo sapiens)", "pIC50": 8.72}
{"COMPOUND": "Cc1cc(C#N)ncc1Oc1cc(Nc2ccc(C(=O)N3CCC(C)(O)CC3)cn2)c2ncn(C)c2n1", "TARGET_OF_ASSAY": "Recombinant human TYK2 catalytic domain (amino acids 871-1187) (Homo sapiens)", "pIC50": 8.78}
{"COMPOUND": "Cc1cc(C#N)ncc1Oc1cc(Nc2cnn(C)c2)c2ncn(C)c2n1", "TARGET_OF_ASSAY": "Recombinant human TYK2 catalytic domain (amino acids 871-1187) (Homo sapiens)", "pIC50": 7.99}
{"COMPOUND": "Cc1cc(C#N)ncc1Oc1cc(Nc2ccc(C(=O)N3C[C@@H](C)O[C@@H](C)C3)cn2)c2ncn(C)c2n1", "TARGET_OF_ASSAY": "Recombinant human TYK2 catalytic domain (amino acids 871-1187) (Homo sapiens)", "pIC50": 8.68}
{"COMPOUND": "Cc1cc(C#N)ncc1Oc1cc(Nc2ccc(C3CCOCC3)cn2)c2ncn(C)c2n1", "TARGET_OF_ASSAY": "Recombinant human TYK2 catalytic domain (amino acids 871-1187) (Homo sapiens)", "pIC50": 8.06}
